targetOfAssay: T1, Pot1pN_D64A (Schizosaccharomyces pombe, UniProt O13988 1-185, D64A)
T1 sequence: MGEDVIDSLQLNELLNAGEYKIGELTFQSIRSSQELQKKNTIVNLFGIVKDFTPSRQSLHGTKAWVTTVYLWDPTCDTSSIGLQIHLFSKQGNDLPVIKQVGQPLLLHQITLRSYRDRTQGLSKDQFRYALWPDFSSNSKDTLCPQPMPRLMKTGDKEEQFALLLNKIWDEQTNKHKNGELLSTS
testDescription: filter binding
pKd: −log10 of the molar value.
measuredProperty: pKd

# binder, recordedMeasurement
records = [
    ("GGTTAC (ssDNA) [6mer]", 6.40),
]
